B1: ZNF649 (parent)
chain: YQAGKPDALTKLEQGEPLWTLEDE

variants of: B1; test: protein stability index of a GFP-peptide fusion (GPS, HEK-293T) (PSI 1-6); higher = more stable; conditions: c terminus: a fixed tail appended;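 note: lentivirally expressed fusions sorted by FACS into six bins by GFP to DsRed ratio, PSI derived from sequencing read proportions per bin multiplied by bin number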
assay-metric: protein stability index

* Y1W | 4.7
* D23F | 3.38
* E13I | 3.15
* P17A | 4.86
* E16K | 4.49
* K11H | 4.78
* G15I | 4.15
* T20P | 4.58
* Q2A | 3.68
* W19L | 4.92
* E13C | 3.2
* K11G | 4.21
* L18D | 5.11
* W19Y | 5.24
* K5A | 4.48
* L12K | 4.17
* P6D | 3.77
* D23M | 2.99
* P17Q | 4.47
* L12I | 4.56
* D23K | 3.51
* L18Y | 3.95
